- recorded_conditions: 297.82 K, Pendant drop shape
measure: surface tension liquid-gas (mN/m)
Express your answer in mN/m, writing the number without its unit.

Sample answers from the record:
# compound, display_unit, surface tension liquid-gas
data = [
    ("CCCCCCC [heptane]", "mN/m", 19.63),
    ("CN(C)C=O [dimethylformamide]", "mN/m", 35.83),
]

Exam item: Give the measured surface tension liquid-gas of CC(C)=O [acetone] .
Marked response: 22.78

Exam item: Give the measured surface tension liquid-gas of C1CCCCC1 [cyclohexane] .
Marked response: 24.2

Exam item: Give the measured surface tension liquid-gas of Cc1ccccc1 [toluene] .
Marked response: 27.76

----------
- recorded_conditions: 317.86 K, Pendant drop shape
measure: surface tension liquid-gas (mN/m)
Express your answer in mN/m, writing the number without its unit.

Sample answers from the record:
# compound, surface tension liquid-gas [mN/m]
records = [
    ("CCCCCCC [heptane]", 17.76),
    ("C1CCCCC1 [cyclohexane]", 21.84),
    ("CN(C)C=O [dimethylformamide]", 33.37),
    ("Cc1ccccc1 [toluene]", 25.46),
]

Now consider the entry below.
Exam item: Give the measured surface tension liquid-gas of CC(C)=O [acetone] .
Marked response: 20.33

----------
- recorded_conditions: 287.81 K, Pendant drop shape
Threshold rule: surface tension liquid-gas greater than or equal to 30 mN/m is Condition met; below that, Condition not met.

// known answers, use as guide
# compound, assigned_label
measured = [
    ("C1CCCCC1", "Condition not met"),
    ("Cc1ccccc1", "Condition not met"),
]

Exam item: Given the entry CCCCCCC , answer whether its surface tension liquid-gas meets or surpasses 30 mN/m.
Marked response: Condition not met

Exam item: Given the entry CC(C)=O , answer whether its surface tension liquid-gas meets or surpasses 30 mN/m.
Marked response: Condition not met

Exam item: Given the entry CN(C)C=O [dimethylformamide] , answer whether its surface tension liquid-gas meets or surpasses 30 mN/m.
Marked response: Condition met

----------
- recorded_conditions: 307.86 K, Pendant drop shape
measure: surface tension liquid-gas (mN/m)
Express your answer in mN/m, writing the number without its unit.

# compound, surface tension liquid-gas (mN/m)
data = [
    ("CCCCCCC", 18.68),
]

Exam item: Give the measured surface tension liquid-gas of CN(C)C=O [dimethylformamide] .
Marked response: 34.65

Exam item: Give the measured surface tension liquid-gas of Cc1ccccc1 .
Marked response: 26.6

Exam item: Give the measured surface tension liquid-gas of C1CCCCC1 .
Marked response: 23.02

Exam item: Give the measured surface tension liquid-gas of CC(C)=O .
Marked response: 21.59

----------
- recorded_conditions: 327.88 K, Pendant drop shape
Threshold rule: surface tension liquid-gas greater than or equal to 20 mN/m is Y; below that, N.

# compound, assigned_label
measured = [
    ("C1CCCCC1 [cyclohexane]", "Y"),
    ("CC(C)=O [acetone]", "N"),
    ("Cc1ccccc1 [toluene]", "Y"),
]

Exam item: Given the entry CCCCCCC [heptane] , answer whether its surface tension liquid-gas meets or surpasses 20 mN/m.
Marked response: N

Exam item: Given the entry CN(C)C=O [dimethylformamide] , answer whether its surface tension liquid-gas meets or surpasses 20 mN/m.
Marked response: Y
